This collection of values is drawn from patent US12227495B2.

# Tested on: Solanum nigrum (SOLNI)
# assay_name: Post-emergence herbicide test, glasshouse, percentage damage
# Type: in vivo
# run_conditions: 1000 g/ha, evaluated after 13 days
# Description: Seeds of a variety of test species are sown in standard soil in pots (Lolium perenne (LOLPE), Solanum nigrum (SOLNI), Amaranthus retoflexus (AMARE), Setaria faberi (SETFA), Echinochloa crus-galli (ECHCG), Ipomoea hederacea (IPOHE)). […] After 13 days for pre and post-emergence, the test is evaluated for the percentage damage caused to the plant. […]
measured_property: percentage damage caused to the plant, SOLNI

{"molecule": "N#Cc1cc(F)cnc1Oc1cccc(Br)c1-c1cc(C(F)F)no1 [Compound A84]", "measured_value": "5 (5=81-100%)"}
{"molecule": "N#Cc1cccc(Oc2ccc(Cl)cn2)c1-n1cc(C(F)(F)F)cn1 [Compound A32]", "measured_value": "5 (5=81-100%)"}
{"molecule": "CS(=O)(=O)c1ccc(Oc2cccc(F)c2-c2cc(C(F)F)no2)nc1 [Compound A40]", "measured_value": "4 (4=61-80%)"}

Returns the measured percentage damage caused to the plant, SOLNI for the input molecule. Input: COc1csc(-c2ccccc2Oc2ncc(Cl)cc2F)c1 [Compound A71]
5 (5=81-100%)

Returns the measured percentage damage caused to the plant, SOLNI for the input molecule. Input: FC(F)(F)c1ccc(Oc2ccccc2-n2cc(C(F)(F)F)cn2)nc1 [Compound A15]
4 (4=61-80%)

---

# System: Setaria faberi (SETFA)
# assay_name: Post-emergence herbicide test, glasshouse, percentage damage
# Format: in vivo
# run_conditions: 250 g/ha, evaluated after 13 days
measured_property: percentage damage caused to the plant, SETFA

Example results:
{"compound_string": "Fc1cc(Cl)cnc1Oc1ccccc1-n1cc(Br)cn1", "target_of_assay": "Setaria faberi (SETFA)", "measured_value": "5 (5=81-100%)"}
{"compound_string": "Fc1cc(Cl)cnc1Oc1ccccc1-n1cc(C(F)F)nn1", "target_of_assay": "Setaria faberi (SETFA)", "measured_value": "5 (5=81-100%)"}

Returns the measured percentage damage caused to the plant, SETFA for the input compound. Input: `Fc1cc(Cl)cnc1Oc1ccccc1-c1cc(C(F)F)on1`
5 (5=81-100%)

---

# Test system: Solanum nigrum (SOLNI)
# assay_name: Post-emergence herbicide test, glasshouse, percentage damage
# Format: in vivo
# run_conditions: 1000 g/ha, evaluated after 13 days
# Experimental: Seeds of a variety of test species are sown in standard soil in pots (Lolium perenne (LOLPE), Solanum nigrum (SOLNI), Amaranthus retoflexus (AMARE), Setaria faberi (SETFA), Echinochloa crus-galli (ECHCG), Ipomoea hederacea (IPOHE)). […] After 13 days for pre and post-emergence, the test is evaluated for the percentage damage caused to the plant. […]
measured_property: percentage damage caused to the plant, SOLNI

Example results:
{"compound_string": "O=[N+]([O-])c1cc(Cl)cnc1Oc1cccc(F)c1-c1cc(C(F)F)no1", "measured_value": "5 (5=81-100%)"}
{"compound_string": "FC(F)c1cc(-c2c(Br)cccc2Oc2cc(Cl)ccn2)on1", "measured_value": "4 (4=61-80%)"}
{"compound_string": "Fc1cc(Cl)cnc1Oc1cccc(I)c1-n1cc(C(F)(F)F)cn1", "measured_value": "5 (5=81-100%)"}

Returns the measured percentage damage caused to the plant, SOLNI for the input compound. Input: `Fc1cc(Br)cnc1Oc1cccc(Cl)c1-c1cc(C(F)F)no1`
5 (5=81-100%)

Returns the measured percentage damage caused to the plant, SOLNI for the input compound. Input: `N#Cc1cnc(Oc2cccc(F)c2-c2cc(C(F)F)no2)c(F)c1`
5 (5=81-100%)
